# normalized growth values compiled below
# assay-info: chemical genetic growth profiling, strain panel (AID 1159580);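 further: tested at 20 µM; growth read once vehicle control cultures reached saturation at 30 °C; 1 = growth at the plate median or of vehicle wells; lower values mean less growth of the strain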
# test-context: S. cerevisiae deletion strains, growth OD, locus YPR141C, strain kar3, active compounds read low
Screen size: about 5,500 compounds; about 2,000 (36%) were called active. About 18% were inconclusive and are not listed. Some of the results follow.
Respond numerically, and do not add a unit to the figure.

compound	normalized growth
CCCCCCCCCCCCC[N+](C)(C)Cc1ccccc1	0.0734
Cc1cc(C(C)(C)CC(C)(C)C)ccc1OCCOCC[N+](C)(C)Cc1ccccc1	0.0826
CC1(C)C2CC[C@]3(C)C(C(=O)C=C4[C@H]5C[C@@](C)(C(=O)O)CC[C@]5(C)CC[C@]43C)[C@@]2(C)CC[C@@H]1O (stereo not given in full)	1.02
CC(C)(C)CC(C)(C)c1ccc(OCCOCC[N+](C)(C)Cc2ccccc2)cc1	0.988

IN: For the compound NC[C@@H]1O[C@H](O[C@@H]2[C@@H](CO)OC(O[C@@H]3[C@@H](O)[C@H](N)C[C@H](N)[C@H]3OC3O[C@H](CN)[C@@H](O)[C@H](O)[C@H]3N)[C@@H]2O)[C@H](N)[C@@H](O)[C@@H]1O (stereo not given in full) , give its reported normalized growth.
OUT: 1.02
